# target desc: IKZF2 (Homo sapiens, UniProt Q96SW2+Q9UKS7)
# Construct: expressed in transfected cells
# Sequence (Q9UKS7 1-500 isoform Q9UKS7-2): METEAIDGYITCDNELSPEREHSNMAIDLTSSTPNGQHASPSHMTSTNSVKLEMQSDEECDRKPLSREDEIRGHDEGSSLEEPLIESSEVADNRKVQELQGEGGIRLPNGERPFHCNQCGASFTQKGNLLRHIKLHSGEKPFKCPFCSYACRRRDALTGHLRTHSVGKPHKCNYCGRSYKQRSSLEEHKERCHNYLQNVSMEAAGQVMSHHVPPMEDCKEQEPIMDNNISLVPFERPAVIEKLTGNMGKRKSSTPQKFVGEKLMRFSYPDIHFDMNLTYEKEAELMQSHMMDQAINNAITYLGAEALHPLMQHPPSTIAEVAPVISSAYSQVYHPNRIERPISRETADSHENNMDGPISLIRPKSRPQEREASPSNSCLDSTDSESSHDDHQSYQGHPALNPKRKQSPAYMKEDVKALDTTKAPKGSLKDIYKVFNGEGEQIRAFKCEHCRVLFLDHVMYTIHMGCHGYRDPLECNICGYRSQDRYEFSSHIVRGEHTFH
# Sequence (Q96SW2 whole entry): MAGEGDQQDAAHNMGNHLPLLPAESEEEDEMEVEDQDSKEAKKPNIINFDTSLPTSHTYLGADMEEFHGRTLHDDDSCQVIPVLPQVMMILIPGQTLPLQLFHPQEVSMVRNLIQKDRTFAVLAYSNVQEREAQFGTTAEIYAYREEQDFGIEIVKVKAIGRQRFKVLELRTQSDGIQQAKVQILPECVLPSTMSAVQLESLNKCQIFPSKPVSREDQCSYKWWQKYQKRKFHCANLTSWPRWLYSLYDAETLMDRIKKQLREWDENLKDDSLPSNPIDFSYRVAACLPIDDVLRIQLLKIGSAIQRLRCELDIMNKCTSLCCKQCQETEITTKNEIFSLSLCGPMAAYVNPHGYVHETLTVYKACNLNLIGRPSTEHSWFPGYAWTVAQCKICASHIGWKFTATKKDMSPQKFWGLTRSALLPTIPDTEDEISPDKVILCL
# Sequence (Q16531 whole entry partner): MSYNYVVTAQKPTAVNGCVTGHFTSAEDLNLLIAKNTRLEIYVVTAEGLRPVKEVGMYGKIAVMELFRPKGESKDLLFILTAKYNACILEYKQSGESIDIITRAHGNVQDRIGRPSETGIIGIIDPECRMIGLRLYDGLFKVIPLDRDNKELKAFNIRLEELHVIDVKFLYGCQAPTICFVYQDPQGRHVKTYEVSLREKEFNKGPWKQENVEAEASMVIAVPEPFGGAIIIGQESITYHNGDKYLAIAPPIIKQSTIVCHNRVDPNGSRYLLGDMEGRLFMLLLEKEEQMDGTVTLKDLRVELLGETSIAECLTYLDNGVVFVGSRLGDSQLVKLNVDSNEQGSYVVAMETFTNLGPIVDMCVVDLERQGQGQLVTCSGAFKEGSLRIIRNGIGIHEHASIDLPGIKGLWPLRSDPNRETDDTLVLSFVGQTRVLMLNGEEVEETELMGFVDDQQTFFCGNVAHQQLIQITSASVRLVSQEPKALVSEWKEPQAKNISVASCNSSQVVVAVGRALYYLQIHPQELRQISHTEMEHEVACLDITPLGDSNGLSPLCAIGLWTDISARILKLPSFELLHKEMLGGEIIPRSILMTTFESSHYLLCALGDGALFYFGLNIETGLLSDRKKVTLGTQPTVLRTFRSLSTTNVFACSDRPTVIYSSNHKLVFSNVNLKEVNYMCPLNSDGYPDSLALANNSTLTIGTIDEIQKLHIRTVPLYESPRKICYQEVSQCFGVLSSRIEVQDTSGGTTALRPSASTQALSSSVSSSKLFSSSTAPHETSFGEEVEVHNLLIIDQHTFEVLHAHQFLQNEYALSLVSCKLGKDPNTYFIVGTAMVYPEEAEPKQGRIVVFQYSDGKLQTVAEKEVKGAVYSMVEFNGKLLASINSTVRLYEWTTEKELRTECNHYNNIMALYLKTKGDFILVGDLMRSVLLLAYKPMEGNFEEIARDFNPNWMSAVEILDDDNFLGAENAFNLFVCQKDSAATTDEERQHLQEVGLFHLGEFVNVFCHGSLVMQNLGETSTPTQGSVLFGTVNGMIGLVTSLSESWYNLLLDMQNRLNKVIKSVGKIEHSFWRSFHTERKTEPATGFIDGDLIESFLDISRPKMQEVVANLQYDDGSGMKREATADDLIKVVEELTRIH
# measurement notes: HiBiT protein tagging assay, in vitro IKZF2 degradation (HEK293)
# Type: cell-based
# condition: HEK293, HiBiT assay, HEK293, 18-24 hr incubation, normalized to DMSO control; read-out: IKZF2 Dmax (maximum degradation at the highest concentration tested)
Items are presented alongside their recorded Dmax.
State the answer as a number, implicitly in %.

// worked examples, Dmax included
molecule | outcome measure | unit label | test value
CC1(NCc2ccc3c(c2)CN(C2CCC(=O)NC2=O)C3=O)CCCCC1 (stereo not drawn) | Dmax | % | 95
O=C1CCC(N2Cc3cc(CN[C@@H]4CCCC[C@H]4O)ccc3C2=O)C(=O)N1 (stereo partly drawn) | Dmax | % | 38
CC1(C)C[C@]2(CC[C@H](NCc3ccc4c(c3)CN(C3CCC(=O)NC3=O)C4=O)CC2)CO1 (stereo partly drawn) | Dmax | % | 88
O=C1CCC(N2Cc3cc(CN[C@@H]4C[C@@H]5CC[C@H]4C5)ccc3C2=O)C(=O)N1 (stereo partly drawn) | Dmax | % | 36

Lab request: please report Dmax under test system IKZF2 (Homo sapiens, UniProt Q96SW2+Q9UKS7) for O=C1CCC(N2Cc3cc(CNC4CCN(c5cccnc5)CC4)ccc3C2=O)C(=O)N1 (stereo not drawn)
90

# returns recorded Dmax (system: IKZF2 (Homo sapiens, UniProt Q96SW2+Q9UKS7)) for O=C1CCC(N2Cc3cc(CN[C@@H]4C[C@H](F)CN(Cc5ccccc5)C4)ccc3C2=O)C(=O)N1 (stereo partly drawn)
84

Notebook entry, IKZF2 (Homo sapiens, UniProt Q96SW2+Q9UKS7) assay: Dmax of O=C1CCC(N2Cc3cc(CN[C@H]4CCc5ccccc5C4)ccc3C2=O)C(=O)N1 (stereo partly drawn) = ?
73

Item: N#CC1CCCC(NCc2ccc3c(c2)CN(C2CCC(=O)NC2=O)C3=O)C1 (stereo not drawn) Test system: IKZF2 (Homo sapiens, UniProt Q96SW2+Q9UKS7) Read-out: Dmax Value: ?
59

Enter reported Dmax observed with IKZF2 (Homo sapiens, UniProt Q96SW2+Q9UKS7) for CN(Cc1ccc2c(c1)CN(C1CCC(=O)NC1=O)C2=O)C1CCN(Cc2ccccc2)CC1 (stereo not drawn)
21

Please tell me: Dmax of C[C@]1(NCc2ccc3c(c2)CN(C2CCC(=O)NC2=O)C3=O)CCCN(Cc2ccccc2)C1 (stereo partly drawn) , system IKZF2 (Homo sapiens, UniProt Q96SW2+Q9UKS7)?
87

Please provide the recorded Dmax for O=C1CCC(N2Cc3cc(CNC4CCCC4)ccc3C2=O)C(=O)N1 (stereo not drawn) , tested on IKZF2 (Homo sapiens, UniProt Q96SW2+Q9UKS7).
55

Entry C[C@H]1CC[C@@H](NCc2ccc3c(c2)CN(C2CCC(=O)NC2=O)C3=O)CC1 (stereo partly drawn) , system IKZF2 (Homo sapiens, UniProt Q96SW2+Q9UKS7): what Dmax was measured?
76

Hello, I am looking for reported Dmax with IKZF2 (Homo sapiens, UniProt Q96SW2+Q9UKS7) for O=C1CCC(N2Cc3cc(CNC4CCN(Cc5ccccc5)C(=O)C4)ccc3C2=O)C(=O)N1 (stereo not drawn) . Could you help?
29

Please tell me: Dmax of O=C1CCC(N2Cc3cc(CN[C@@H]4CCCN(Cc5ccccn5)C4)ccc3C2=O)C(=O)N1 (stereo partly drawn) , system IKZF2 (Homo sapiens, UniProt Q96SW2+Q9UKS7)?
97

Requested read-out Dmax, target or system IKZF2 (Homo sapiens, UniProt Q96SW2+Q9UKS7), entry O=C1CCC(N2Cc3cc(CN[C@H]4CCCN(Cc5ccccc5)C4)ccc3C2=O)C(=O)N1 (stereo partly drawn)
72

Quick check: Dmax on IKZF2 (Homo sapiens, UniProt Q96SW2+Q9UKS7), item O=C1CCC(N2Cc3cc(CN[C@H]4CC[C@@H](c5ccccc5)CC4)ccc3C2=O)C(=O)N1 (stereo partly drawn) ?
83

Which measured Dmax belongs to O=C1CCC(N2Cc3cc(CNCC4CCCc5ccccc54)ccc3C2=O)C(=O)N1 (stereo not drawn) , tested on IKZF2 (Homo sapiens, UniProt Q96SW2+Q9UKS7)?
36

Look up Dmax with IKZF2 (Homo sapiens, UniProt Q96SW2+Q9UKS7) for this molecule: O=C1CCC(N2Cc3cc(CNC4CCN(C(=O)c5ccccc5)CC4)ccc3C2=O)C(=O)N1 (stereo not drawn)
96

Please state recorded Dmax (tested on IKZF2 (Homo sapiens, UniProt Q96SW2+Q9UKS7)) of O=C1CCC(N2Cc3cc(CN[C@@H]4CCC[C@H](OCc5ccccc5)C4)ccc3C2=O)C(=O)N1 (stereo partly drawn)
90

What reported Dmax corresponds to O=C1CCC(N2Cc3cc(CNC4CCCC(C(F)(F)F)C4)ccc3C2=O)C(=O)N1 (stereo not drawn) on IKZF2 (Homo sapiens, UniProt Q96SW2+Q9UKS7)?
64

Give Dmax (IKZF2 (Homo sapiens, UniProt Q96SW2+Q9UKS7)) of the following molecule: CO[C@@H]1CCCC[C@H]1NCc1ccc2c(c1)CN(C1CCC(=O)NC1=O)C2=O (stereo partly drawn)
85
